Reference source for all entries: the NIST ThermoML archive (doi:10.1016/j.jct.2005.04.013)

Hi there, I'd appreciate the recorded activity coefficient for every entry that follows.
experiment: activity coefficient (dimensionless); of the first substance listed, at infinite dilution; xn = mol fraction of the nth substance listed; details: 363.65 K; Liquid; x1 = 0
Give bare numbers.

Worked set:
C1CCOC1 [tetrahydrofuran] + CCCCn1cc[n+](C)c1.F[B-](F)(F)F ... 2
O [water] + CCCCn1cc[n+](C)c1.[Cl-] ... 0.1
CCO [ethanol] + CCCCn1cc[n+](C)c1.F[B-](F)(F)F ... 1.25
CCO [ethanol] + CCCCn1cc[n+](C)c1.[Cl-] ... 0.2
CCO [ethanol] + CCCCCCCC[n+]1ccn(C)c1.F[B-](F)(F)F ... 0.81
O [water] + CCn1cc[n+](C)c1.F[B-](F)(F)F ... 0.45

Look at each molecule and report its activity coefficient.
1. O [water] + CCCCCCCC[n+]1ccn(C)c1.F[B-](F)(F)F
2. C1CCOC1 [tetrahydrofuran] + CCCCn1cc[n+](C)c1.[Cl-]
3. C1CCOC1 [tetrahydrofuran] + CCn1cc[n+](C)c1.F[B-](F)(F)F
4. CCO [ethanol] + CCn1cc[n+](C)c1.F[B-](F)(F)F
5. C1CCOC1 [tetrahydrofuran] + CCCCCCCC[n+]1ccn(C)c1.F[B-](F)(F)F
6. CO [methanol] + CCn1cc[n+](C)c1.F[B-](F)(F)F

*A*
[0.68, 3.81, 3.48, 1.33, 1.09, 0.4]

*Q* # query: activity coefficient of entry O [water] + CCCCn1cc[n+](C)c1.F[B-](F)(F)F
*A* 0.61
